For each entry below, report its T/C value.
Test system: L1210 leukemia ip in BDF1 mice, survival T/C
assay summary: NCI In Vivo Anticancer Drug Screen. Data for tumor model L1210 Leukemia (intraperitoneal) in B6D2F1 (BDF1) mice
condition label: endpoint: mean survival time; dose: 200.0 mg/kg/injection; schedule: Q04DX002 (ip); vehicle: Klucel (hydroxypropylcellulose) (HPC); higher = longer survival
Toxic doses and inconclusive results are not listed.

Some compounds with recorded T/C:
C=C(C)COc1ccc(C(=O)c2ccccc2)cc1 ... 100 % of control
CC(C)=NOS(=O)(=O)c1c(C)cc(C)cc1C ... 105 % of control
CCc1ccccc1NC(=S)Nc1ccccc1 ... 105 % of control
C/C=C\C=N\NC(=O)C(=O)N/N=C/C=C\C ... 91 % of control
COC1OC2COC(c3ccccc3)OC2C(OC(C)=O)C1OC(C)=O (stereo not given) ... 117 % of control

State recorded T/C for all listed compounds.
1. COC1OC(CBr)C(OC(=O)c2ccccc2)C(OC(=O)c2ccccc2)C1OS(=O)(=O)c1ccc(C)cc1 (stereo not given)
2. CC(c1ccccc1O)C1CCCCC1N=O (stereo not given)
3. Cc1cc(C)cc(-n2cccc2C(=O)O)c1
4. CC(=O)c1cc(Cl)ccc1O
5. CCC(=Nc1ccccc1)Nc1ccccc1
6. O=C(COCC(=O)N/N=C/c1ccccc1O)N/N=C/c1ccccc1O

OUTPUT:
1. 97 % of control
2. 102 % of control
3. 86 % of control
4. 96 % of control
5. 106 % of control
6. 91 % of control

State recorded T/C for all listed compounds.
1. CC1CCOP(=O)(Sc2ccccc2)O1 (stereo not given)
2. O=C(Oc1ccc(S(=O)(=O)F)cc1Cl)c1ccc(Cl)cc1
3. Cc1ccc(Cl)cc1NC(=S)Nc1ccccc1
4. O=C(O)CCC(=O)c1ccccc1

OUTPUT:
1. 109 % of control
2. 89 % of control
3. 103 % of control
4. 91 % of control

----------
Tested on: L1210 leukemia ip in BDF1 mice, survival T/C
assay summary: NCI In Vivo Anticancer Drug Screen. Data for tumor model L1210 Leukemia (intraperitoneal) in B6D2F1 (BDF1) mice
condition label: endpoint: mean survival time; dose: 100.0 mg/kg/injection; schedule: Q04DX003 (ip); vehicle: saline
Inconclusive results and toxic doses are left out. Rule as the data show it: active = T/C of 150% or more; inactive = T/C below 125%.
Hi there, use one of these labels in your reply, thanks! active, inactive

INPUT: Query: recorded result category for CC(=O)Nc1cc(NC(C)=O)cc([N+](=O)[O-])c1 in this test
OUTPUT: inactive

INPUT: Query: recorded result category for C=C(Cl)CSC(=S)N(CC)CC in this test
OUTPUT: inactive

INPUT: Query: recorded result category for COC(=O)C(c1ccccc1)C1CCCCN1 (stereo unspecified) in this test
OUTPUT: inactive

INPUT: Query: recorded result category for NN1CC(=O)NC1=O in this test
OUTPUT: inactive

INPUT: Query: recorded result category for CCCCNC(=S)N(CCCC)CCCC in this test
OUTPUT: inactive

INPUT: Query: recorded result category for CC/C(CC(C)CC)=N\O (stereo unspecified) in this test
OUTPUT: inactive

INPUT: Query: recorded result category for CCOC(=O)CC(C(=O)OCC)C(OCC)OCC (stereo unspecified) in this test
OUTPUT: inactive

INPUT: Query: recorded result category for COc1cc([N+](=O)[O-])c(C)cc1NC(=O)c1ccc(OC)c(OC)c1 in this test
OUTPUT: inactive

INPUT: Query: recorded result category for CCOc1nc(=O)n(C2CCOC2=O)cc1F (stereo unspecified) in this test
OUTPUT: inactive

----------
System: L1210 leukemia ip in BDF1 mice, survival T/C
assay summary: NCI In Vivo Anticancer Drug Screen. Data for tumor model L1210 Leukemia (intraperitoneal) in B6D2F1 (BDF1) mice
condition label: endpoint: mean survival time; dose: 100.0 mg/kg/injection; schedule: Q04DX003 (ip); vehicle: Klucel (hydroxypropylcellulose) (HPC); higher = longer survival
Inconclusive results and toxic doses are left out.
For each entry below, report its T/C value.

State recorded T/C for all listed compounds.
1. CS(=O)(=O)CCC(C#N)(CCS(C)(=O)=O)c1ccccc1
2. CNC(=O)ON=C1CCC(CC2CCCCC2)CC1 (stereo not given)
3. Nc1ncc([N+](=O)[O-])cn1
4. COc1ccc(/C=C/C(=O)c2ccc(OC)cc2)cc1
5. CNO
6. CC1(C)CC(Br)C(=O)c2ccccc21 (stereo not given)
7. Cc1cc([N+](=O)[O-])cc([N+](=O)[O-])c1Cl

OUTPUT:
1. 110 % of control
2. 92 % of control
3. 103 % of control
4. 102 % of control
5. 95 % of control
6. 100 % of control
7. 98 % of control

State recorded T/C for all listed compounds.
1. S=C([S][Sn]([c]1ccccc1)([c]1ccccc1)[c]1ccccc1)N1CCOCC1
2. Nc1ccccc1/C=C(\C(=O)O)c1cccc(Cl)c1
3. COc1cc(OC)c(NC(=O)NCCCl)cc1Cl
4. O=C(O)c1cc2ccccc2s1
5. NC(=S)N/N=C\c1[nH]c(=O)nc2ccccc12
6. CCSc1nc(C=O)c(Cc2ccccc2)c(=O)[nH]1

OUTPUT:
1. 100 % of control
2. 99 % of control
3. 104 % of control
4. 102 % of control
5. 103 % of control
6. 101 % of control

----------
For each entry below, report its T/C value.
Tested on: L1210 leukemia ip in BDF1 mice, survival T/C
assay summary: NCI In Vivo Anticancer Drug Screen. Data for tumor model L1210 Leukemia (intraperitoneal) in B6D2F1 (BDF1) mice
condition label: endpoint: mean survival time; dose: 400.0 mg/kg/injection; schedule: Q04DX003 (ip); vehicle: Klucel (hydroxypropylcellulose) (HPC); higher = longer survival
Inconclusive results and toxic doses are left out.

CCOC1C=CC(OC(C)=O)C(COC(C)=O)O1 (stereo not drawn) ... 94 % of control
Nc1ccc2ccccc2c1-c1c(N)ccc2ccccc12 ... 88 % of control

State recorded T/C for all listed compounds.
1. CCCCOC(=O)c1ccc(OCCOc2ccc(C(C)(C)CC(C)(C)C)cc2)c(NC(=O)CC(=O)c2cccc(N)c2)c1
2. CCOC(=O)c1cnc(SC)nc1Nc1ccccc1Br
3. CNO
4. CCCCCCCCCCCCCCCCOB(OCCCCCCCCCCCCCCCC)OCCCCCCCCCCCCCCCC
5. O=S(=O)(F)c1ccc(-c2cc(Cl)c3cc(F)ccc3n2)cc1
6. Cc1cc2c(c(NC(=O)NCCCl)c1C)CCCC2

OUTPUT:
1. 88 % of control
2. 98 % of control
3. 109 % of control
4. 94 % of control
5. 106 % of control
6. 103 % of control

----------
For each entry below, report its T/C value.
Test system: L1210 leukemia ip in BDF1 mice, survival T/C
assay summary: NCI In Vivo Anticancer Drug Screen. Data for tumor model L1210 Leukemia (intraperitoneal) in B6D2F1 (BDF1) mice
condition label: endpoint: mean survival time; dose: 400.0 mg/kg/injection; schedule: Q04DX002 (ip); vehicle: Klucel (hydroxypropylcellulose) (HPC); higher = longer survival
Inconclusive results and toxic doses are left out.

Some compounds with recorded T/C:
Nc1c(Br)cc(I)cc1C(=O)O ... 104 % of control
O=C(O)CCC(=O)c1ccccc1 ... 87 % of control
Cc1cc(C)c(C#N)c(=O)[nH]1 ... 95 % of control

Consider the record given below.
INPUT: // T/C lookup, key: COc1cccc(NC(=S)NC(=O)c2ccccc2)c1
OUTPUT: 103 % of control

----------
For each entry below, report its T/C value.
Tested on: L1210 leukemia ip in BDF1 mice, survival T/C
assay summary: NCI In Vivo Anticancer Drug Screen. Data for tumor model L1210 Leukemia (intraperitoneal) in B6D2F1 (BDF1) mice
condition label: endpoint: mean survival time; dose: 100.0 mg/kg/injection; schedule: Q04DX003 (ip); vehicle: saline; higher = longer survival
Toxic doses and inconclusive results are not listed.

Nc1ccc(-c2ccc(N)c(Cl)c2)cc1Cl ... 100 % of control

State recorded T/C for all listed compounds.
1. Cn1ccc(CCl)n1
2. CCOC(=O)c1ccc(NCC(C)(C)N)cc1
3. OC1CN(C2CCCCC2)C1
4. O=C(O)CCCN1C(=O)CCC1=O
5. CCCN(CCC)CCC(=O)O
6. CCn1c(O)c(C=N)c(=O)n(CC)c1=O

OUTPUT:
95 % of control
97 % of control
98 % of control
97 % of control
97 % of control
106 % of control

State recorded T/C for all listed compounds.
1. CN(C)CCN=C(Nc1ccccn1)Nc1ccccn1
2. O=C1CCSCCN1
3. CC(c1ccccc1)S(=O)(=O)c1ccccc1 (configuration not stated)
4. CC1=CCC(C(C)C)C=C1 (configuration not stated)
5. CCOC(=O)c1nc2nc(Cl)c(Cl)nc2[nH]1

OUTPUT:
1: 113 % of control; 2: 97 % of control; 3: 97 % of control; 4: 96 % of control; 5: 99 % of control

State recorded T/C for all listed compounds.
1. CC(=O)c1ccc2ccccc2c1O
2. c1ccc(SCN2CCN(CSc3ccccc3)CC2)cc1
3. CCOC(=O)C(C)(C(=O)OCC)c1ccccc1
4. O=C(O)C1=CC(O)C(O)C(O)C1 (configuration not stated)
5. C=CCCCCCCCCC(=O)NCCCC(OCC)OCC
6. CC(CN1CC(=O)NC(=O)C1)N1CC(=O)NC(=O)C1.[Cl-].[Pt+4] (configuration not stated)
7. O=C(O)CNCc1cccc(Br)c1

OUTPUT:
1: 101 % of control; 2: 101 % of control; 3: 97 % of control; 4: 92 % of control; 5: 106 % of control; 6: 153 % of control; 7: 95 % of control
